Molecular target: T1, p75CTD monomer (p75CTD C379S/C416S) (rat, UniProt P07174 334-425, C379S | C416S, biotinylated for the BLI assay)
T1 sequence: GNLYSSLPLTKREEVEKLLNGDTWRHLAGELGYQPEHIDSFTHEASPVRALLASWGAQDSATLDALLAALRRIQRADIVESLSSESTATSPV
Test: BLI
experimental_readout: Kd (nM)
Write down the numeric answer in nM and omit the unit.

stdin: Give its Kd value. Item: Human RIP2 CARD domain (residues 438-524) (domain or fragment, UniProt O43353 438-524, looked up, pET24a vector; also called CARD protein; source: E. coli, purified (similar to p75DD)) QWIQSKREDIVNQMTEACLNQSLDALLSRDLIMKEDYELVSTKPTRTSKVRQLLDTTDIQGEEFAKVIVQKLKDNKQMGLQPYPEIL
stdout: 240

meta.source: paper PMC3589453
